- PROTOCOL: NCI Yeast Anticancer Drug Screen. Data for the cln2 rad14 strain (AID 165);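 note: 0% = growth equal to vehicle treated cultures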
- ASSAY_SETUP: S. cerevisiae cln2 rad14 strain, at 50.0 µM (retest, dose inferred, filed as 5.0), hits give high values
Compounds without any hit were thinned out: in the full panel of roughly 79,000, 15% have a hit.
Can you tell me growth inhibition for the items I'm about to list?
The answer is to be given in %; state only the numeric part.

Please fill in: growth inhibition reported for Cc1ccc2c(c1)C1(SC(C)C(=O)N1c1ccc(F)cc1)C(=O)N2 (stereo unspecified) = 98

Record CC(=O)N(C)c1cc(NCc2ccccc2)ccc1OCc1ccccc1 , field growth inhibition: 24

Entry CN(c1ccccc1)N(C)c1ccccc1 — recorded growth inhibition = 15

Looking up O=C(O)c1ccccc1-c1c2cc([N+](=O)[O-])c(=O)c(Br)c-2oc2c(Br)c(O)c([N+](=O)[O-])cc12 , I found its growth inhibition recorded as 66

growth inhibition reported for this compound CCc1cccc(CC)c1NC(=O)CS : 90

The reported growth inhibition of the compound COc1cc2c(c(O)c1OC)-c1c(cc(OC)c(OC)c1OC)CC(C)C(C)C2 (stereo unspecified) was 61

Consider N/N=C(/N)SCCCCCCCCCCS/C(N)=N/N . Its measured growth inhibition is -28

In plain terms, C/C(CCC1CCc2ccccc2C1)=N\NC(N)=O (stereo unspecified) has a documented growth inhibition of -13

Value of measured growth inhibition for the entry O=C(C[N+]12CN3CN(CN(C3)C1)C2)c1ccc(Cl)cc1Cl : -6

For this compound ( CNC(=S)/N=c1/sc([N+](=O)[O-])c(C)n1C ), measured growth inhibition is -14

Per the record, CN1C(=O)C(C2C(=O)N(C)C(=O)N(C)C2=O)C(=O)N(C)C1=O has growth inhibition of 4
